- measurement-description: Inhibition of NS5A in Hepatitis C virus subtype 1a replicon infected in human HuH7 cells assessed as reduction in viral replication
List of EC50 values.
# output: bare number, implied unit nM

chem-smiles | EC50 (nM)
CCCC(=O)Nc1ccc(-c2ccc(-c3c[nH]c([C@@H]4CCCN4C(=O)[C@H](NC(=O)N4CCCC4)c4ccccc4)n3)cc2)cc1 | 353
CCCC(=O)Nc1ccc(-c2ccc(-c3c[nH]c([C@@H]4CCCN4C(=O)[C@H](NC(=O)c4ccccc4)c4ccccc4)n3)cc2)cc1 | 2400
CCCC(=O)Nc1ccc(-c2ccc(-c3c[nH]c([C@@H]4CCCN4C(=O)[C@H](NC(=O)N4CC[C@@H](NC(=O)OC)C4)c4ccccc4)n3)cc2)cc1 | 353
CCCC(=O)Nc1ccc(-c2ccc(-c3c[nH]c([C@@H]4CCCN4C(=O)[C@H](NC(=O)N4CCC[C@@H](NC(=O)OCc5ccccc5)C4)c4ccccc4)n3)cc2)cc1 | 100
COC1CCN(C(=O)Nc2ccc(-c3ccc(-c4c[nH]c([C@@H]5CCCN5C(=O)[C@H](NC(=O)CCCNC(=O)OCc5ccccc5)c5ccccc5)n4)cc3)cc2)CC1 | 2.3

--- query ---
Qu. I would be grateful if you could share the reported EC50 for `COC(=O)N[C@@H](C(=O)N1CCC[C@H]1c1nc(-c2ccc(-c3ccccc3)cc2)c[nH]1)c1ccccc1` .
Ans. 2800

* * *

- measurement-description: Inhibition of NS5A in Hepatitis C virus subtype 1b replicon infected in human HuH7 cells assessed as reduction in viral replication
pEC50: −log10 of the molar value.
Please enter t where pEC50 is greater than or equal to 10, and f where it is lower.

Use these answered entries as a reference point.
chem-smiles | answer-label
COC(=O)N[C@@H](C(=O)N1CCC[C@H]1c1nc(-c2ccc(-c3ccccc3)cc2)c[nH]1)c1ccccc1 | f
CCCC(=O)Nc1ccc(-c2ccc(-c3c[nH]c([C@@H]4CCCN4C(=O)[C@H](NC(=O)OC)c4ccccc4)n3)cc2)cc1 | f
COCc1ccc(C(=O)Nc2ccc(-c3ccc(-c4c[nH]c([C@@H]5CCCN5C(=O)[C@H](NC(=O)CCCNC(=O)OCc5ccccc5)c5ccccc5)n4)cc3)cc2)cc1 | t

Qu. Say whether `CCCC(=O)Nc1ccc(-c2ccc(-c3c[nH]c([C@@H]4CCCN4C(=O)[C@H](NC(=O)N4CC[C@@H](NC(=O)OCc5ccccc5)C4)c4ccccc4)n3)cc2)cc1` shows pEC50 of 10 or more.
Ans. t

Qu. Also `COC1CCN(C(=O)Nc2ccc(-c3ccc(-c4c[nH]c([C@@H]5CCCN5C(=O)[C@H](NC(=O)CCCNC(=O)OCc5ccccc5)c5ccccc5)n4)cc3)cc2)CC1` , if possible.
Ans. t

Qu. Also `CCCC(=O)Nc1ccc(-c2ccc(-c3c[nH]c([C@@H]4CCCN4C(=O)[C@H](NC(=O)N4CC[C@H](NC(=O)OCc5ccccc5)C4)c4ccccc4)n3)cc2)cc1` , if possible.
Ans. t

* * *

- measurement-description: Inhibition of NS5A in Hepatitis C virus subtype 1a replicon infected in human HuH7 cells assessed as reduction in viral replication
List of EC50 values.
# output: bare number, implied unit nM

See these solved cases before continuing.
chem-smiles | quantitative-result
CCCC(=O)Nc1ccc(-c2ccc(-c3c[nH]c([C@@H]4CCCN4C(=O)[C@H](NC(=O)c4ccc(NC(=O)OCc5ccccc5)cc4)c4ccccc4)n3)cc2)cc1 | 131
CCCC(=O)Nc1ccc(-c2ccc(-c3c[nH]c([C@@H]4CCCN4C(=O)[C@H](NC(=O)c4cccc(NC(=O)OCc5ccccc5)c4)c4ccccc4)n3)cc2)cc1 | 44

--- query ---
Qu. I would be grateful if you could share the reported EC50 for `CCCC(=O)Nc1ccc(-c2ccc(-c3c[nH]c([C@@H]4CCCN4C(=O)[C@H](NC(=O)CCCc4ccccc4)c4ccccc4)n3)cc2)cc1` .
Ans. 1300

Ref: BindingDB's records for doi:10.1016/j.bmcl.2019.126932
